biological target: monomeric HLA-A2:HPV16E7(11-19) peptide complex, soluble (human; human papillomavirus type 16); experiment: SPR 25C, mAb captured
A collection of binders and their measured Kd
Remember to put the unit after the number in your answer.

* H4sH17364N (antibody, V domains shown) VH: EVQLLESGGGLVQPGGSLRLSCAASGFTFSSYAMTWVRQAPGKGLEWVSVISGSGSETYYADSVKGRFTISRDNSKNTLYLQMNSLRAEDTAVYYCVKDSSYRSSSRAYYYYGMDVWGLGTTVTVSS VL: DIQMTQSPSSLSASVGDRVTITCRASQSISSYLNWYQQKPGKAPKLLIYAVSILQSGVPSRFSGSGSGTDFTLTISSLQPEDFATYSCQQTYSTPPITFGQGTRLEIKR | 18.3 nM
* H4sH17675P (antibody, V domains shown) VH: EVQLVESGGGLVQPGASLRLSCEASGFTLSFYAMHWVRQAPGKELEYVSGISGNGNSIYYRDSVKGRFTISRDNSKNTLYLQMGSVGAEDMAVYYCARSYSSGNSYYYYYGMDVWGQGTTVTVSS VL: DIQMTQSPSSLSASVGDRITITCRASQSISSYLNWYQQKPGKAPNLLIYAASNLQSGVPSRFSGSGSGTDFTLTISSLQPEDFATYYCQQSYSTPPITFGQGTRLEIKR | 23.1 nM
* H4sH21079P (antibody, V domains shown) VH: EVQLVESGGGLVKPGGSLRLSCAASGFTFSNAWMSWVRQAPGKGLEWVGRIKTRADGGTTDYAAPVKGRFTISRDDSKNTLYLQLNSLKTEDTAVYYCTSHNWNYEDFDYWGQGTLVTVSS VL: DIQMTQSPSSLSASVGDRVTITCRASQSISNYLNWYQQKPGKAPKLLIYAASSLQSGVPSRFSGSGSGTDFTLTISSLQPEEFATYYCQQSYSIPYTFGQGTKLEIK | 290 nM
* H4sH17363N (antibody, V domains shown) VH: EVQLLESGGGLVQPGGSLRLSCAASGFTFSSYAMTWVRQAPGMGLEWVSVISGSGSETYYADSVKGRFTISRDNSKNTLYLQMNSLRAEDTAVYYCVKDSSYRSSSRAYYYYGMDVWGLGTTVTVSS VL: DIQMTQSPSSLSASVGDRVTITCRASQSISSYLNWYQQKPGKAPKLLIYAVSILQSGVPSRFSGSGSGTDFTLTINSLQPEDFATYSCQQTYSTPPITFGQGTRLEIKR | 17.6 nM

As a next step, examine the binder that follows.
Task item: Can you share its Kd? I mean this binder: H4sH17672P (antibody, V domains shown) VH: EVQLVESGGGLVQPGASLRLSCEASGFTLSFYSMHWVRQAPGRELEYVSGISGNGNNIYYRDSVKGRFTISRDNSKNTLNLQMGSVRAEDMGVYYCARSYSSGNSYNYYYGMDVWGQGTTVTVSS VL: DIQMTQSPSSLSASVGDRVTITCRASQTISSYLNWYQQKPGKAPKLLIYAVSNLQSGVPSRFSGSGSGTDFTLTISSLQPEDFATYYCQQSYSTPPITFGQGTRLEIK
Reply: 6.37 nM
